assay: Drug uptake in HT1080 cells xenografted mouse assessed as large intestine to plasma ratio after 90 mins in presence of non-radioactive ML5; format: ADME, cell-based, HT-1080; details: large intestine and plasma
assayReadout: Kp at 1.5 h

CC(C)C[C@H](CC(=O)NO)C(=O)N[C@@H](Cc1ccccc1)C(=O)N[C@@H](CCCCNC(=O)c1ccc([18F])cc1)C(N)=O | 14.8

----------
target: Macrophage metalloelastase (Homo sapiens, UniProt P39900); experiment: Inhibition of human recombinant MMP12 catalytic domain Mca-Pro-Leu-Gly-Leu-Dpa-Ala-Arg-NH2 fluorogenic substrate
Sequence (P39900 whole entry, the tested form may be a part): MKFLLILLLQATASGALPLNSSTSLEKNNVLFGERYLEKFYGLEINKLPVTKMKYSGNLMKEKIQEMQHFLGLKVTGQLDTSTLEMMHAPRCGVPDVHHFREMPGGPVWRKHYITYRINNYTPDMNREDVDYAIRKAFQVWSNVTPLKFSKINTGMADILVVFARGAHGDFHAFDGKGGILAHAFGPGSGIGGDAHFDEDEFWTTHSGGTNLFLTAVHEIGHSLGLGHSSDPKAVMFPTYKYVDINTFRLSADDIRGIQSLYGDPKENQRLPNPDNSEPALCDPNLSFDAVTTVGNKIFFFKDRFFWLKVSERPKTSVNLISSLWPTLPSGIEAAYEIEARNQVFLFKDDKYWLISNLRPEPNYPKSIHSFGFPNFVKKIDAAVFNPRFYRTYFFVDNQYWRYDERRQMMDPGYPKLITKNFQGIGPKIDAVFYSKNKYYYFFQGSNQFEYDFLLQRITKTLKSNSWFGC
assayReadout: IC50 (nM)

CC(C)C[C@H](CC(=O)NO)C(=O)N[C@@H](Cc1ccccc1)C(=O)N[C@@H](CCCCNC(=O)c1ccc(F)cc1)C(N)=O | 138
CC(C)C[C@H](CC(=O)NO)C(=O)N[C@@H](Cc1ccccc1)C(=O)N[C@@H](CCCCN)C(N)=O | 2

----------
assay: Drug uptake in HT1080 cells xenografted mouse assessed as liver to plasma ratio after 90 mins; type: ADME, cell-based, HT-1080; settings: liver and plasma
assayReadout: Kp at 1.5 h

CC(C)C[C@H](CC(=O)NO)C(=O)N[C@@H](Cc1ccccc1)C(=O)N[C@@H](CCCCNC(=O)c1ccc([18F])cc1)C(N)=O | 19.2

----------
assay: Drug uptake in HT1080 cells xenografted mouse assessed as liver to plasma ratio after 90 mins in presence of non-radioactive ML5; format: ADME, cell-based, HT-1080; conditions: liver and plasma
assayReadout: Kp at 1.5 h

CC(C)C[C@H](CC(=O)NO)C(=O)N[C@@H](Cc1ccccc1)C(=O)N[C@@H](CCCCNC(=O)c1ccc([18F])cc1)C(N)=O | 10.9

----------
assay: Drug uptake in HT1080 cells xenografted mouse assessed as tumor to plasma ratio after 90 mins; assay type: ADME, cell-based, HT-1080; settings: tumor and plasma
assayReadout: Kp at 1.5 h

CC(C)C[C@H](CC(=O)NO)C(=O)N[C@@H](Cc1ccccc1)C(=O)N[C@@H](CCCCNC(=O)c1ccc([18F])cc1)C(N)=O | 0.597

----------
Reported IC50 values for a set of compounds
target: 72 kDa type IV collagenase (Homo sapiens, UniProt P08253); experiment: Inhibition of human recombinant MMP2 catalytic domain using Mca-Pro-Leu-Gly-Leu-Dpa-Ala-Arg-NH2 fluorogenic substrate
Sequence (P08253 whole entry, the tested form may be a part): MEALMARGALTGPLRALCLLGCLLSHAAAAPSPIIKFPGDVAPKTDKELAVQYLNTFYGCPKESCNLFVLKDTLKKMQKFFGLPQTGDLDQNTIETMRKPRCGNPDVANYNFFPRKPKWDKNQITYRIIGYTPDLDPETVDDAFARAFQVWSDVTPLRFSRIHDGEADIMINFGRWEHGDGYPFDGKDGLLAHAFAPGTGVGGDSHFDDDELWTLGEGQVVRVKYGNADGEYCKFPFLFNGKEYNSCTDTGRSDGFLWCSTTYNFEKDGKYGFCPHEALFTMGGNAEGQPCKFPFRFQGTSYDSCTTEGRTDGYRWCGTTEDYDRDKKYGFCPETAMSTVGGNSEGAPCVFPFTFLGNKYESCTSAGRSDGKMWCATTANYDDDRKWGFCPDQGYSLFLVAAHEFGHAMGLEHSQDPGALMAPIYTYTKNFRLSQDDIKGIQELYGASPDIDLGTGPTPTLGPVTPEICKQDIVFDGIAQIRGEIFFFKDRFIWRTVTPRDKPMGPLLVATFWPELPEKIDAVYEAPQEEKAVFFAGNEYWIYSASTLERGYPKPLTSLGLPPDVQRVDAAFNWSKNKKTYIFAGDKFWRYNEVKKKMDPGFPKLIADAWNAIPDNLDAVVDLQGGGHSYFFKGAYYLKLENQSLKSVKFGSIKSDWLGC
assayReadout: IC50 (nM)

CC(C)C[C@H](CC(=O)NO)C(=O)N[C@@H](Cc1ccccc1)C(=O)N[C@@H](CCCCN)C(N)=O | 7.4
CC(C)C[C@H](CC(=O)NO)C(=O)N[C@@H](Cc1ccccc1)C(=O)N[C@@H](CCCCNC(=O)c1ccc(F)cc1)C(N)=O | 12.5

----------
assay: Drug uptake in HT1080 cells xenografted mouse assessed as tumor to plasma ratio after 90 mins in presence of non-radioactive ML5; format: ADME, cell-based, HT-1080; settings: tumor and plasma
assayReadout: Kp at 1.5 h

CC(C)C[C@H](CC(=O)NO)C(=O)N[C@@H](Cc1ccccc1)C(=O)N[C@@H](CCCCNC(=O)c1ccc([18F])cc1)C(N)=O | 0.231

----------
Reported IC50 values for a set of compounds
target: Matrix metalloproteinase-9 (Homo sapiens, UniProt P14780); assay: Inhibition of human recombinant MMP9 catalytic domain using Mca-Pro-Leu-Gly-Leu-Dpa-Ala-Arg-NH2 fluorogenic substrate
Sequence (P14780 whole entry, the tested form may be a part): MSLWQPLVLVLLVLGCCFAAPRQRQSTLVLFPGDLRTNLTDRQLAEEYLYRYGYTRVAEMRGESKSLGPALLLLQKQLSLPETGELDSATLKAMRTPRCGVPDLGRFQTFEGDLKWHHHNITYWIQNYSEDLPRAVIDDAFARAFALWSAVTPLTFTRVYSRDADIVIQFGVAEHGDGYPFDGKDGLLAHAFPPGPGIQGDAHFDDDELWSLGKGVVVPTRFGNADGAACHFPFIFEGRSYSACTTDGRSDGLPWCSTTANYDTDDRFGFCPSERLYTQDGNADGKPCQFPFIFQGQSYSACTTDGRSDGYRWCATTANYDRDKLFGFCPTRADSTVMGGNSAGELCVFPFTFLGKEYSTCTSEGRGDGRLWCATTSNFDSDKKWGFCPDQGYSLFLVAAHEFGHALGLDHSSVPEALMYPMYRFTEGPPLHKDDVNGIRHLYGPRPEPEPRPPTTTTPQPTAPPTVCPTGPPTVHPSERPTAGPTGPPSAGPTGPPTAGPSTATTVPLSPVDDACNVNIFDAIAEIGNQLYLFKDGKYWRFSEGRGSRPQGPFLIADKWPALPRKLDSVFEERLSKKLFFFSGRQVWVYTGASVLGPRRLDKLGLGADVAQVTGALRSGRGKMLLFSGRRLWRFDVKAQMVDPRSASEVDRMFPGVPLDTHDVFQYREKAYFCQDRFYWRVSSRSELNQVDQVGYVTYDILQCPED
assayReadout: IC50 (µM)

CC(C)C[C@H](CC(=O)NOC(=O)c1ccc(F)cc1)C(=O)N[C@@H](Cc1ccccc1)C(=O)N[C@@H](CCCCNC(=O)c1ccc(F)cc1)C(N)=O | 1.49
CC(C)C[C@H](CC(=O)NO)C(=O)N[C@@H](Cc1ccccc1)C(=O)N[C@@H](CCCCNC(=O)c1ccc(F)cc1)C(N)=O | 0.0315
CC(C)C[C@H](CC(=O)NO)C(=O)N[C@@H](Cc1ccccc1)C(=O)N[C@@H](CCCCN)C(N)=O | 0.0195
